target: T1, SIRPα protein (Acrobiosystems, Cat. No. SIA-H5225), V1 genotype (human, UniProt P78324 31-370); assay: ELISA, coated SIRPα (SIA-H5225)
T1 construct: Bought protein; also called recombinant SIRPα protein; antigen SIRPα
T1 sequence (P78324 31-370 limits assumed): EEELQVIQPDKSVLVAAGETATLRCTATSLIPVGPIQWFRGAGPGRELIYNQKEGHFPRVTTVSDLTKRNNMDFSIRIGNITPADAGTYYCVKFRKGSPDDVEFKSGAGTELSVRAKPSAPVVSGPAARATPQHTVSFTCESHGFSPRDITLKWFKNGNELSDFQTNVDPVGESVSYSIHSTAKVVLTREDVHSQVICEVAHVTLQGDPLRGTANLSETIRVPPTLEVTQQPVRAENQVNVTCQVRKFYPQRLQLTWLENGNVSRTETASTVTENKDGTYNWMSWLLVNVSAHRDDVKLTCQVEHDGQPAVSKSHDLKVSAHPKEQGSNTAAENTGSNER

# binder, EC50 / pM
measured = [
    ("#11 antibody (humanized anti-SIRPα antibody) (antibody, V domains shown, Full antibody as tested) VH: QVTLKESGPVLVKPTETLTLTCTVSGFSLSSHGVHWIRQPPGKALEWLAVIWSDGSTTYNSTLKSRLTISKDTSKSQVVLTMTNMDPVDTATYYCARHGNYHYNMDYWGQGTLVTVSS VL: DIQLTQSPSFLSASVGDRVTITCRTSSRVNSGYLHWYQQKPGKAPKLLIYSTSTLASGVPSRFSGSGSGTEFTLTISSLQPEDFATYYCQQYSSYPWTFGGGTKLEIK", 464),
]
